SYSTEM UNDER TEST: Macrophage colony-stimulating factor 1 receptor (Homo sapiens, UniProt P07333)
Sequence (P07333 whole entry, the tested form may be a part): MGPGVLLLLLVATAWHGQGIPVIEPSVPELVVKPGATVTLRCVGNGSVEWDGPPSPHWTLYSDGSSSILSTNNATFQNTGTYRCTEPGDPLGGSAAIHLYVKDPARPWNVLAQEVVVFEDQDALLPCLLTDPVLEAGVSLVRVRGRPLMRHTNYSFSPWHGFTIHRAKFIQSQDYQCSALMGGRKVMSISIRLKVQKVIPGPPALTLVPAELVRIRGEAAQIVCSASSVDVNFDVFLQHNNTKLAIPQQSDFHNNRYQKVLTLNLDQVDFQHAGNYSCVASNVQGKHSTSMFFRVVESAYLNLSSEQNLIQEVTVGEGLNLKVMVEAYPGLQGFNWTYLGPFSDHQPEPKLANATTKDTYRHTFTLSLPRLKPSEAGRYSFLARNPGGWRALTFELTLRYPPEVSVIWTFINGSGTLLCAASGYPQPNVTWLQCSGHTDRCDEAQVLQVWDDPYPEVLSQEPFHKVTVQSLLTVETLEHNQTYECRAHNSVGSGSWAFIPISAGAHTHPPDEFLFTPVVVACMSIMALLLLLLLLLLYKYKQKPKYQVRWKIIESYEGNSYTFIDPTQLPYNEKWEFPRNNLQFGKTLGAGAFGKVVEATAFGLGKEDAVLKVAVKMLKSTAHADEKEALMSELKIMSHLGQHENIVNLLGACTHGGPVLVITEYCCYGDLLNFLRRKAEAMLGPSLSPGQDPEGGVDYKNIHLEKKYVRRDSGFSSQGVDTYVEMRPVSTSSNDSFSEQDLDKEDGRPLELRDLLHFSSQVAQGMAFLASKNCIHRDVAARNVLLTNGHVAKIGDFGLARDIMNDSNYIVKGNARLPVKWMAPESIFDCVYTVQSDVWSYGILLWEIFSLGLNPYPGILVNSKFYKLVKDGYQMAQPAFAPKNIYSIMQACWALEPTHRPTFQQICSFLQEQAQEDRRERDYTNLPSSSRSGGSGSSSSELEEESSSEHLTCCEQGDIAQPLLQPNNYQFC
ASSAY SUMMARY: Displacement of kinase tracer 236 from recombinant human His-tagged CSF1R cytoplasmic domain (538 to 910 residues) expressed in baculovirus-infected insect cells measured after 5 hrs by TR-FRET based LanthaScreen assay
Here the recorded IC50 is given for each entry.

Completed entries (count: 3):
[
  {
    "SMILES STRING": "COc1ccc(CC(=O)Nc2ccc(-n3c4c(c5ncnc(N)c53)CCC4)cc2)cc1N(C)C",
    "IC50": "10 to 200 nM"
  },
  {
    "SMILES STRING": "COc1cc(-n2c3c(c4ncnc(N)c42)COC3)ccc1NC(=O)Cn1ccc(C(C)(C)C)n1",
    "IC50": "10 to 200 nM"
  },
  {
    "SMILES STRING": "COc1cc(-n2c3c(c4ncnc(N)c42)CCC3)ccc1NC(=O)Cc1c(C)noc1C",
    "IC50": "> 200 nM"
  }
]

Now look at this entry.
Summary for this molecule, COc1cc(-n2c3c(c4ncnc(N)c42)COC3)ccc1NC(=O)Cc1ccc(C(F)(F)F)nc1 : IC50 is 10 to 200 nM

###

SYSTEM UNDER TEST: Macrophage colony-stimulating factor 1 receptor (Homo sapiens)
ASSAY SUMMARY: Displacement of kinase tracer 236 from recombinant human His-tagged CSF1R cytoplasmic domain (538 to 910 residues) expressed in baculovirus-infected insect cells measured after 5 hrs by TR-FRET based LanthaScreen assay
MEASUREMENT TYPE: IC50

Completed entries (count: 8):
[
  {
    "SMILES STRING": "COc1cc(-n2c3c(c4ncnc(N)c42)CCC3)ccc1CC(=O)Nc1ccc(C(C)(C)OC)nc1",
    "SYSTEM UNDER TEST": "Macrophage colony-stimulating factor 1 receptor (Homo sapiens)",
    "MEASUREMENT TYPE": "IC50",
    "MEAS VALUE": "< 10 nM"
  },
  {
    "SMILES STRING": "Cc1ccc(F)c(CC(=O)Nc2ccc(-n3c4c(c5ncnc(N)c53)COC4)cc2)c1",
    "SYSTEM UNDER TEST": "Macrophage colony-stimulating factor 1 receptor (Homo sapiens)",
    "MEASUREMENT TYPE": "IC50",
    "MEAS VALUE": "10 to 200 nM"
  },
  {
    "SMILES STRING": "COc1ccc(NC(=O)Cc2ccc(-n3c4c(c5ncnc(N)c53)CCC4)cc2OC)cc1F",
    "SYSTEM UNDER TEST": "Macrophage colony-stimulating factor 1 receptor (Homo sapiens)",
    "MEASUREMENT TYPE": "IC50",
    "MEAS VALUE": "< 10 nM"
  },
  {
    "SMILES STRING": "COc1ccccc1CC(=O)Nc1ccc(-n2c3c(c4ncnc(N)c42)CCC3)cc1",
    "SYSTEM UNDER TEST": "Macrophage colony-stimulating factor 1 receptor (Homo sapiens)",
    "MEASUREMENT TYPE": "IC50",
    "MEAS VALUE": "< 10 nM"
  },
  {
    "SMILES STRING": "Cn1cc(CC(=O)Nc2ccc(-n3c4c(c5ncnc(N)c53)CCC4)cc2)cn1",
    "SYSTEM UNDER TEST": "Macrophage colony-stimulating factor 1 receptor (Homo sapiens)",
    "MEASUREMENT TYPE": "IC50",
    "MEAS VALUE": "10 to 200 nM"
  },
  {
    "SMILES STRING": "COc1cc(-n2c3c(c4ncnc(N)c42)CCC3)ccc1NC(=O)Cc1ccc(C)cc1F",
    "SYSTEM UNDER TEST": "Macrophage colony-stimulating factor 1 receptor (Homo sapiens)",
    "MEASUREMENT TYPE": "IC50",
    "MEAS VALUE": "< 10 nM"
  },
  {
    "SMILES STRING": "CC(C)(C)c1cc(NC(=O)Cc2ccc(-n3c4c(c5ncnc(N)c53)CCC4)cc2)n(-c2ccccc2)n1",
    "SYSTEM UNDER TEST": "Macrophage colony-stimulating factor 1 receptor (Homo sapiens)",
    "MEASUREMENT TYPE": "IC50",
    "MEAS VALUE": "< 10 nM"
  },
  {
    "SMILES STRING": "Nc1ncnc2c3c(n(-c4ccc(NC(=O)Cc5ccc6c(c5)OCO6)cc4)c12)CCC3",
    "SYSTEM UNDER TEST": "Macrophage colony-stimulating factor 1 receptor (Homo sapiens)",
    "MEASUREMENT TYPE": "IC50",
    "MEAS VALUE": "10 to 200 nM"
  }
]

Summary for this compound, COc1cc(CC(=O)Nc2ccc(-n3c4c(c5ncnc(N)c53)CCC4)cc2OC)ccc1C : IC50 is < 10 nM

Summary for this compound, Cn1cc(CCC(=O)Nc2ccc(-n3c4c(c5ncnc(N)c53)CCC4)cc2)c2ccccc21 : IC50 is 10 to 200 nM

Summary for this compound, Nc1ncnc2c3c(n(-c4ccc(NC(=O)Cc5ccccc5)c(Cl)c4)c12)CCC3 : IC50 is > 200 nM

###

Here the recorded IC50 is given for each entry.
SYSTEM UNDER TEST: Macrophage colony-stimulating factor 1 receptor (Homo sapiens)
ASSAY SUMMARY: Displacement of kinase tracer 236 from recombinant human His-tagged CSF1R cytoplasmic domain (538 to 910 residues) expressed in baculovirus-infected insect cells measured after 5 hrs by TR-FRET based LanthaScreen assay

Completed entries (count: 2):
[
  {
    "SMILES STRING": "Nc1ncnc2c3c(n(-c4ccc(NC(=O)Cc5cccc(Cl)c5)cc4)c12)CCC3",
    "IC50": "< 0.01 µM"
  },
  {
    "SMILES STRING": "COc1cc(-n2c3c(c4ncnc(N)c42)CCC3)ccc1CC(=O)Nc1ccc2nonc2c1",
    "IC50": "< 0.01 µM"
  }
]

Lab entry: Macrophage colony-stimulating factor 1 receptor (Homo sapiens) assay, compound Nc1ncnc2c3c(n(-c4ccc(NC(=O)Cc5ccncc5)cc4)c12)CCC3 , IC50 = > 0.2 µM

Lab entry: Macrophage colony-stimulating factor 1 receptor (Homo sapiens) assay, compound Nc1ncnc2c3c(n(-c4ccc(NC(=O)Cc5ccc6c(c5)CCC6)cc4)c12)CCC3 , IC50 = < 0.01 µM

Lab entry: Macrophage colony-stimulating factor 1 receptor (Homo sapiens) assay, compound COc1cc(-n2c3c(c4ncnc(N)c42)CCC3)ccc1CC(=O)Nc1cc(C(F)(F)F)ccc1F , IC50 = < 0.01 µM

Lab entry: Macrophage colony-stimulating factor 1 receptor (Homo sapiens) assay, compound COc1cc(-n2c3c(c4ncnc(N)c42)CCC3)ccc1CC(=O)Nc1cc(C(F)(F)F)cnn1 , IC50 = < 0.01 µM

Lab entry: Macrophage colony-stimulating factor 1 receptor (Homo sapiens) assay, compound Nc1ncnc2c3c(n(-c4ccc(CC(=O)Nc5ccc(Cl)c(C(F)(F)F)c5)cc4)c12)COC3 , IC50 = < 0.01 µM

Lab entry: Macrophage colony-stimulating factor 1 receptor (Homo sapiens) assay, compound Nc1ncnc2c3c(n(-c4ccc(NC(=O)Cc5ccc(C(F)(F)F)nc5)cc4)c12)CCC3 , IC50 = < 0.01 µM

Lab entry: Macrophage colony-stimulating factor 1 receptor (Homo sapiens) assay, compound Cn1ccc2cc(CC(=O)Nc3ccc(-n4c5c(c6ncnc(N)c64)COC5)cc3)ccc21 , IC50 = 0.01 to 0.2 µM

Lab entry: Macrophage colony-stimulating factor 1 receptor (Homo sapiens) assay, compound CC(C)(C)c1cnn(CC(=O)Nc2ccc(-n3c4c(c5ncnc(N)c53)CCC4)cc2)c1 , IC50 = < 0.01 µM

Lab entry: Macrophage colony-stimulating factor 1 receptor (Homo sapiens) assay, compound COc1ccc(CC(=O)Nc2ccc(-n3c4c(c5ncnc(N)c53)CCC4)cc2)nc1 , IC50 = 0.01 to 0.2 µM

Lab entry: Macrophage colony-stimulating factor 1 receptor (Homo sapiens) assay, compound Nc1ncnc2c3c(n(-c4ccc(CC(=O)NCc5ccccc5)cc4)c12)CCC3 , IC50 = 0.01 to 0.2 µM

Lab entry: Macrophage colony-stimulating factor 1 receptor (Homo sapiens) assay, compound Nc1ncnc2c3c(n(-c4ccc(CC(=O)Nc5ccc(OC(F)(F)F)cc5)cc4)c12)COC3 , IC50 = 0.01 to 0.2 µM

Lab entry: Macrophage colony-stimulating factor 1 receptor (Homo sapiens) assay, compound Nc1ncnc2c3c(n(-c4ccc(NC(=O)Cn5cc(C(F)(F)F)cn5)cc4)c12)CCC3 , IC50 = < 0.01 µM

###

SYSTEM UNDER TEST: Macrophage colony-stimulating factor 1 receptor (Homo sapiens)
ASSAY SUMMARY: Displacement of kinase tracer 236 from recombinant human His-tagged CSF1R cytoplasmic domain (538 to 910 residues) expressed in baculovirus-infected insect cells measured after 5 hrs by TR-FRET based LanthaScreen assay
Here the recorded IC50 is given for each entry.

Completed entries (count: 6):
[
  {
    "SMILES STRING": "Nc1ncnc2c3c(n(-c4ccc(NC(=O)Cc5nc6ccccc6s5)cc4)c12)CCC3",
    "MEAS VALUE": "0.01 to 0.2 µM"
  },
  {
    "SMILES STRING": "COc1cc(-n2c3c(c4ncnc(N)c42)CCC3)ccc1NC(=O)Cc1cc(C(F)F)on1",
    "MEAS VALUE": "< 0.01 µM"
  },
  {
    "SMILES STRING": "COc1cc(-n2c3c(c4ncnc(N)c42)CCC3)ccc1NC(=O)Cc1ccccn1",
    "MEAS VALUE": "< 0.01 µM"
  },
  {
    "SMILES STRING": "COc1ccc(CC(=O)Nc2ccc(-n3c4c(c5ncnc(N)c53)CCC4)cc2OC)nc1",
    "MEAS VALUE": "0.01 to 0.2 µM"
  },
  {
    "SMILES STRING": "Nc1ncnc2c3c(n(-c4ccc(NC(=O)Cn5cnc(C(F)(F)F)c5)cc4)c12)COC3",
    "MEAS VALUE": "< 0.01 µM"
  },
  {
    "SMILES STRING": "Cc1ccc(F)c(NC(=O)Cc2ccc(-n3c4c(c5ncnc(N)c53)COC4)cc2)c1",
    "MEAS VALUE": "0.01 to 0.2 µM"
  }
]

Summary for this molecule, Nc1ncnc2c3c(n(-c4ccc(NC(=O)Cn5cnc(C(F)(F)F)c5)cc4)c12)CCC3 : IC50 is < 0.01 µM
